tested on: convulsion induced by picrotoxine in mice; experiment: Protection against picrotoxine-induced convulsion (suppression of the tonic extension phase); type: in vivo, male Swiss mice; conditions: Mus musculus, ip, 0.5 h, read-out: i.p.: % prot. (percentage of protected animals), 50 mg/kg i.p., picrotoxine 24 mg/kg i.p. 30 min later; * p<0.05, ** p<0.01, *** p<0.001
quantity measured: responders at 50 mg/kg

// known answers, use as guide
>>> measured_value("CCC(CC=Cc1ccccc1)(c1ccccc1)N(C)C (single isomer, unassigned; (-)) [Example 49]")
"100%"
>>> measured_value("CCC(C[C@@H]1C[C@H]1c1ccccc1)(c1cc(OC)c(OC)c(OC)c1)N(C)C (relative stereo)")
"70%"
>>> measured_value("CCC(CC=Cc1cccs1)(c1ccsc1)N(C)C (stereo not drawn)")
"90%"
>>> measured_value("CCC(CC=Cc1ccccc1)(c1ccc(OC)cc1)N(C)C (stereo not drawn)")
"90%"
>>> measured_value("CCC(CC=Cc1cccs1)(c1cccs1)N(C)C (stereo not drawn)")
"90%"
>>> measured_value("CCC(CC=Cc1cccs1)(c1ccco1)N(C)C (stereo not drawn)")
"50%"
>>> measured_value("C=CCN(C)C(CC)(CC=Cc1ccccc1)c1ccccc1 (stereo not drawn)")
"80%"
>>> measured_value("CCC(N)(CC=Cc1ccccc1)c1ccccc1 (stereo not drawn) [Example 3, a-cinnamyl-a-ethyl-benzylamine]")
"80%"
>>> measured_value("CC(C)C(N)(CC=Cc1ccc(Cl)c(Cl)c1)c1ccccc1 (stereo not drawn)")
"70%"
>>> measured_value("CCC(CC=Cc1ccccc1)(c1ccc(C(F)(F)F)cc1)N(C)C (stereo not drawn)")
"80%"

// responders at 50 mg/kg value for CCC(C[C@@H]1C[C@H]1c1ccccc1)(c1ccsc1)N(C)C (relative stereo) : 100%

Briefly, responders at 50 mg/kg measured for CCC(C[C@@H]1C[C@H]1c1ccccc1)(c1ccco1)N(C)C (relative stereo) : 80%

---

test system: convulsion induced by picrotoxine in mice; assay: Protection against picrotoxine-induced convulsion (suppression of the tonic extension phase); format: in vivo, male Swiss mice; conditions: 50 mg/kg i.p., picrotoxine 24 mg/kg i.p. 30 min later; * p<0.05, ** p<0.01, *** p<0.001
quantity measured: i.p.: % prot. (percentage of protected animals) (%)
Write it as a number; the unit % goes unstated.

Solved cases (3 shown):
>>> measured_value("CCC(CC=Cc1ccccc1)(c1ccccc1)N(C)C (single isomer, unassigned; (+)) [Example 50]")
100
>>> measured_value("CCC(N)(CC=Cc1ccccc1)c1ccc(Cl)cc1 (single isomer, unassigned; (-)) [Example 17B]")
80
>>> measured_value("CCC(CC=Cc1ccccc1)(NC)c1ccccc1 (single isomer, unassigned; (+)) [Example 29]")
100

--- query ---
The recorded i.p.: % prot. (percentage of protected animals) for CCC(N)(CC=Cc1ccccc1)c1ccccc1 (single isomer, unassigned) [Example 16B] is 100

---

Listed here are molecules together with their documented change in vivo at 5 mg/kg.
tested on: bladder of the rat; experiment: Transvesical cystomanometry on wide awake rat (urological activity); format: in vivo, female rat; conditions: Rattus norvegicus, iv; 5,0 mg/kg i.v.; read-out: % variation volume
Number in %, nothing else.

Study these solved cases before continuing.
>>> measured_value("CCC(CC=Cc1ccc(Cl)c(Cl)c1)(NC)c1ccc(OC)cc1 (centres unmarked)")
67
>>> measured_value("CCC(CC=Cc1ccc(Cl)c(Cl)c1)(NC)c1ccc(Cl)cc1 (centres unmarked)")
93
>>> measured_value("CCC(CC=Cc1cc(OC)c(OC)c(OC)c1)(c1ccccc1)N(C)C (centres unmarked)")
53
>>> measured_value("CCC(CC=Cc1ccccc1)(NC)c1ccc(Cl)cc1 (centres unmarked)")
54

Looking up CNC(CC=Cc1ccc(Cl)c(Cl)c1)(c1ccccc1)C(C)C (centres unmarked) , I found its change in vivo at 5 mg/kg recorded as 35
